Values compiled from patent US8486991B2.

system: HIV-1 BH10 wild-type virus; test: CPE / cell protection assay, MT-4 cells, BH10 wild-type; type: cell-based; conditions: Human immunodeficiency virus 1, MT4; Cell Protection Assay tables; unit inferred; read-out: EC50, BH10
Listed below: EC50 values for each entry.

MOL SMILES	EC50 (nM)
CO[P@](=O)(c1cc(C)cc(/C=C/C#N)c1)c1c(C(N)=O)[nH]c2ccc(Cl)cc12	0.15
CO[P@@](=O)(c1cc(C)cc(/C=C/C#N)c1)c1c(C(N)=O)[nH]c2ccc(Cl)cc12	0.2
CO[P@](=O)(c1cc(C)cc(/C=C/C#N)c1)c1c(C(N)=O)[nH]c2ccc(Cl)c(F)c12	0.28
CO[P@@](=O)(c1cc(C)cc(/C=C/C#N)c1)c1c(C(N)=O)[nH]c2ccc(Cl)c(F)c12	62

* * *

assay: In vivo pharmacokinetics, monkeys; design: species or system monkey; conditions: male, monkey, in vivo, po, 5 mg/kg, Monkey, 5 mg/kg PO-Fed, males (3M or 2M), exploratory study; read-out: BA (absolute oral bioavailability)

MOL SMILES	bioavailability / %
CO[P@](=O)(c1cc(C)cc(/C=C/C#N)c1)c1c(C(N)=O)[nH]c2ccc(Cl)c(F)c12	58

* * *

test: In vivo pharmacokinetics, monkeys; set-up: species or system monkey; conditions: plasma; monkey, 5 mg/kg oral dose; read-out: plasma concentrations at 24 hours post-dose
ENDPOINT: concentration at 24 h (ng/mL)

MOL SMILES	REPORTED RESULT
CO[P@](=O)(c1cc(C)cc(/C=C/C#N)c1)c1c(C(N)=O)[nH]c2ccc(Cl)cc12	12

* * *

assay: Plasma protein binding by equilibrium dialysis, rat; assay type: in vitro ADME; conditions: rat, plasma, read-out: Percentage Plasma Protein Binding, Rats
ENDPOINT: fraction unbound

MOL SMILES	ENDPOINT	REPORTED RESULT
CO[P@](=O)(c1cc(C)cc(/C=C/C#N)c1)c1c(C(N)=O)[nH]c2ccc(Cl)c(F)c12	fraction unbound	< 0.01

* * *

assay: In vitro half-life in liver microsomes, rat; type: in vitro ADME; details: microsomes, up to one hour, longer half-lives are extrapolated, n=1
In this section, each of the compounds is paired with its reported half-life at 1 μM.

COMPOUND	half-life at 1 μM [h]
CO[P@](=O)(c1cc(C)cc(/C=C/C#N)c1)c1c(C(N)=O)[nH]c2ccc(Cl)c(F)c12 [Compound I]	1.67
COP(=O)(c1cc(C)cc(/C=C/C#N)c1)c1c(C(N)=O)[nH]c2ccc(Cl)cc12 (racemic) [rac (III + IV)]	1.75
COP(=O)(c1cc(C)cc(/C=C/C#N)c1)c1c(C(N)=O)[nH]c2ccc(Cl)c(F)c12 (racemic) [rac (I + II)]	2.43

* * *

assay: In vivo pharmacokinetics, dogs; settings: both sexes, in vivo; Dog, 5 mg/kg PO-Fed, M+F, mean
ENDPOINT: Tmax

MOL SMILES	ENDPOINT	REPORTED RESULT
CO[P@](=O)(c1cc(C)cc(/C=C/C#N)c1)c1c(C(N)=O)[nH]c2ccc(Cl)c(F)c12	Tmax	18 min

* * *

test: Compound depletion in hepatocytes, human; assay type: in vitro ADME; settings: human, fresh hepatocytes plated on collagen-coated plates, up to 2 hours, read-out: t½, Compound Depletion in Hepatocytes, Human

MOL SMILES	half-life at 1 μM [h]
CO[P@](=O)(c1cc(C)cc(/C=C/C#N)c1)c1c(C(N)=O)[nH]c2ccc(Cl)cc12	2.08
